Target: Sigma non-opioid intracellular receptor 1 (Homo sapiens, UniProt Q99720)
Sequence (Q99720 whole entry): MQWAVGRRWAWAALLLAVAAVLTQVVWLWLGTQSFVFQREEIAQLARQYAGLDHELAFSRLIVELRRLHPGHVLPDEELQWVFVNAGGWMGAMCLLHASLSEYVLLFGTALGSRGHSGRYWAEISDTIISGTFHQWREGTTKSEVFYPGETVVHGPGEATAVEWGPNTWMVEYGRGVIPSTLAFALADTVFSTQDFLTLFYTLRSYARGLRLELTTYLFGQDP
Assay: Displacement of [3H]-Pentazocine from human recombinant sigma1 receptor expressed in HEKT cells after 90 mins by microbeta scintillation counting method
Assay type: cell-based
Conditions: read-out: pKi (converted)
API: label(entry) gives t if the entry's Ki is strictly smaller than 300 nM; on equality or larger values it gives f.

CC[C@H]1c2cc(C)ccc2OC[C@@]1(C)N (racemic)
f
C[C@@]12COc3c(-c4ccccc4)cccc3[C@@H]1CCN2 (racemic)
t
Cc1ccc(N2C[C@@]3(C)NCC[C@H]3c3cc(C)ccc32)cc1 (racemic)
t
COc1ccc2c(c1)[C@@H]1CCN[C@]1(C)CO2 (racemic)
t
CC[C@H]1c2ccc(O)cc2OC[C@@]1(C)N (racemic)
f
CC[C@H]1c2ccccc2N(c2ccccc2)C[C@@]1(C)N (racemic)
f
C[C@@]12COc3cc(O)ccc3[C@@H]1CCN2 (racemic)
f
CC[C@H]1c2ccc3ccccc3c2OC[C@@]1(C)N (racemic)
f
C[C@@]12COc3ccc(-c4ccccc4)cc3[C@@H]1CCN2 (racemic)
t
CC[C@H]1c2cc(OC)ccc2CC[C@@]1(C)N (racemic)
t
